These data points were gathered from patent US20210275641A1.

Target: T1, human high affinity trimeric IL-2 receptor (CD25/CD122/CD132) (human, UniProt P01589 22-272; P14784 27-551; P31785 23-369)
T1 sequence 1: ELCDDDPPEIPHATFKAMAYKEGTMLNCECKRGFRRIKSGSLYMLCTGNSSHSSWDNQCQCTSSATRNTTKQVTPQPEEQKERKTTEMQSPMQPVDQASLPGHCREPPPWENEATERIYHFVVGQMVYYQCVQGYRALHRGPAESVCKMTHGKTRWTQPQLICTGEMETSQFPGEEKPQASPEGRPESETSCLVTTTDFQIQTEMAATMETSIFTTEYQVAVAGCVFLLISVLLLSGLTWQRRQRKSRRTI
T1 sequence 2: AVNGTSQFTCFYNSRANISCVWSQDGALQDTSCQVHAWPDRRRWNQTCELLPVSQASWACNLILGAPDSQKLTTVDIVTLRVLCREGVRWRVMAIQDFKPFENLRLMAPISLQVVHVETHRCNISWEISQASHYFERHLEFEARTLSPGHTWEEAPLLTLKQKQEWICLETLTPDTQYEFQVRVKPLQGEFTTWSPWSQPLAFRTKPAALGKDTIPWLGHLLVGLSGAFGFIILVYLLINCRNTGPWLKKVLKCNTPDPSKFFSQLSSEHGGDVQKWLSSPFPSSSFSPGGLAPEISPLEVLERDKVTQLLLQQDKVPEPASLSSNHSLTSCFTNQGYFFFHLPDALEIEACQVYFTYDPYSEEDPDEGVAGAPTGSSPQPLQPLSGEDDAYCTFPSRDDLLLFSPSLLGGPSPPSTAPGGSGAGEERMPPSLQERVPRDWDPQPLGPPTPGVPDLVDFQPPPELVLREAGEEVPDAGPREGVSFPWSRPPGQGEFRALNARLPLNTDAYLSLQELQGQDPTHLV
T1 sequence 3: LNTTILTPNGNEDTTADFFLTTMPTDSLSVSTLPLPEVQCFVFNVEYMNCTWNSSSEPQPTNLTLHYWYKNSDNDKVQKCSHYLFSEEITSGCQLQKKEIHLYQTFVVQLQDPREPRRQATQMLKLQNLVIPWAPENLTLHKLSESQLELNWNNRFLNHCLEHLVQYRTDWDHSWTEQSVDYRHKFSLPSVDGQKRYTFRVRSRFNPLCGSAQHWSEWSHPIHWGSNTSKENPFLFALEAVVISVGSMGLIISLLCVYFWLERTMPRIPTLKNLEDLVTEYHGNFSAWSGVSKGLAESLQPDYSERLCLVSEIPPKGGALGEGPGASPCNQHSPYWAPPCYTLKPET
Assay: cell-based or functional assay
outcome-measure: pSTAT5 ratio YT CD25/YT, dilution factor 2, lower table

RMH (ligand) cytokine: APTSSSTKKTQLQLEHLRLDLMMILNGINNYKNPKLTRMLTFKFYMPKKATELKHLQCLEEELKPLEEVLNLAQSKNFHLRPRDLISNINVIVLELKGSETTFMCEYADETATIVEFLNRWITFCHSIISTLT	0.6
TEH (ligand) cytokine: APTSSSTKKTQLQLEHLTLDLEMILNGINNYKNPKLTRMLTFKFYMPKKATELKHLQCLEEELKPLEEVLNLAQSKNFHLRPRDLISNINVIVLELKGSETTFMCEYADETATIVEFLNRWITFCHSIISTLT	0.5

A: RSH (ligand) cytokine: APTSSSTKKTQLQLEHLRLDLSMILNGINNYKNPKLTRMLTFKFYMPKKATELKHLQCLEEELKPLEEVLNLAQSKNFHLRPRDLISNINVIVLELKGSETTFMCEYADETATIVEFLNRWITFCHSIISTLT
B: RNH (ligand) cytokine: APTSSSTKKTQLQLEHLRLDLNMILNGINNYKNPKLTRMLTFKFYMPKKATELKHLQCLEEELKPLEEVLNLAQSKNFHLRPRDLISNINVIVLELKGSETTFMCEYADETATIVEFLNRWITFCHSIISTLT
Input pair: A , B . Output: entry with lower pSTAT5 ratio YT CD25/YT, dilution factor 2, lower table. // output: label of the selected item
A
(A: 1, B: 2.1)
